TESTED SYSTEM: h-GABAA α2β2γ1 (Homo sapiens, UniProt P47869+Q8N1C3)
Sequence (P47869 29-451): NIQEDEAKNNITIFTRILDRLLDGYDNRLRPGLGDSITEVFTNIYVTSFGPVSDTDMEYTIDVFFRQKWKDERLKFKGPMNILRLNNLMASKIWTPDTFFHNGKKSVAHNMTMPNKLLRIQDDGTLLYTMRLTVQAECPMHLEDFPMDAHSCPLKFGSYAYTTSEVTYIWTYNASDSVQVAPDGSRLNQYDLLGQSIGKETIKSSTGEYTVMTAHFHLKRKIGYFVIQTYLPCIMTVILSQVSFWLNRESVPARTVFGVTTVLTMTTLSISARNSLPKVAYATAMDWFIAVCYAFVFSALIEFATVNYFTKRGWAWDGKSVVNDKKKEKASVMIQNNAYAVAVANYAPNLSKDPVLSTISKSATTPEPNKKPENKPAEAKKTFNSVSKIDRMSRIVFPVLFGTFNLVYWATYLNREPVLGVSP
Sequence (P47870 25-512 partner limits assumed): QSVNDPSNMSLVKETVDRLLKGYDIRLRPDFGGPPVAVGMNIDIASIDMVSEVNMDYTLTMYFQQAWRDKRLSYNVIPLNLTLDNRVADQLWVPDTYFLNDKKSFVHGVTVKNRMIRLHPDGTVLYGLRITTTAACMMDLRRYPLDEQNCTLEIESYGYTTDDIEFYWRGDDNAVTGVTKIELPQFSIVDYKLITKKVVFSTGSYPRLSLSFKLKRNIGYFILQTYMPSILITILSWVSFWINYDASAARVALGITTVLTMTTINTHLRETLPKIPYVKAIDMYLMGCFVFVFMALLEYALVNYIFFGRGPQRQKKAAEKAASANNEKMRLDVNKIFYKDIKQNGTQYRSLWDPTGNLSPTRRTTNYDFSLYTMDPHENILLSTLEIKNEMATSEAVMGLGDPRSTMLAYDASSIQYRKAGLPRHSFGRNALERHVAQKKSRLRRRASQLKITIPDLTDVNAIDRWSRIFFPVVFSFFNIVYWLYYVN
Sequence (Q8N1C3 36-465): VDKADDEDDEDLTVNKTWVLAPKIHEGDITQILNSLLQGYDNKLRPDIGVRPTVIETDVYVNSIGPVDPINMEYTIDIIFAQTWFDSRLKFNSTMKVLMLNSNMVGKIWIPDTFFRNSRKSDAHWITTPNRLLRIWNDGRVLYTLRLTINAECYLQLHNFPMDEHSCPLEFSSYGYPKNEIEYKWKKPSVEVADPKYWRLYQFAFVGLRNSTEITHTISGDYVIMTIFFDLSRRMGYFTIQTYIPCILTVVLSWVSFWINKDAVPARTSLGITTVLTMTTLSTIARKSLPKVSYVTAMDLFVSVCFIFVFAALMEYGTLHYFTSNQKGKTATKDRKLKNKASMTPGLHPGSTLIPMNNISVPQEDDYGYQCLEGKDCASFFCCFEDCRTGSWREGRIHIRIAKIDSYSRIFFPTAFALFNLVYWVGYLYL
TEST PROTOCOL: Two-electrode voltage clamp electrophysiology in Xenopus oocytes, modulation of GABA EC20 current
Assay type: cell-based
Parameters: host or cells: Xenopus laevis oocytes, RNA micro-injection
CONDITION LABEL: Table 2; % modulation of GABA EC20 = 100*(Fold increase−1); compound at approx. 30-fold Ki
READOUT: Efficacy (GABA)%

Consider the following illustrative entries.
Fc1cccnc1C1=NCc2nnc(C3CC3)n2-c2ccc(Cl)c(Cl)c21 = 114%
CO[C@H]1C[C@H](c2nnc3n2-c2ccc(Cl)c(Cl)c2C(c2c(F)cccc2F)=NC3)C1 = 58%
Fc1cccnc1C1=NCc2nnc(-c3ccncn3)n2-c2ccc(C(F)(F)F)c(Cl)c21 = 136%

Can you look up the measured Efficacy (GABA)% of Cc1ccc2c(c1Cl)C(c1c(F)cccc1F)=NCc1nnc(-c3cccnn3)n1-2 for me?
101%

Can you look up the measured Efficacy (GABA)% of O=c1[nH]nc2n1-c1ccc(Cl)c(Cl)c1C(c1c(F)cccc1F)=NC2 for me?
72%

Can you look up the measured Efficacy (GABA)% of Fc1cccc(F)c1C1=NCc2nncn2-c2ccc(C(F)(F)F)c(Cl)c21 for me?
67%

Can you look up the measured Efficacy (GABA)% of COCCc1nnc2n1-c1ccc(Cl)c(Cl)c1C(c1c(F)cccc1F)=NC2 for me?
72%

Can you look up the measured Efficacy (GABA)% of Fc1cccc(F)c1C1=NCc2nncn2-c2ccc(Br)c(Cl)c21 for me?
56%

---

Measured pKi, listed per entry.
TESTED SYSTEM: h-GABAA α2β2γ1 (Homo sapiens, UniProt P47869+Q8N1C3)
TEST PROTOCOL: Radioligand binding assay, [3H]RO7239181 competition, HEK293F membranes
// pKi here means minus log10 of the molar concentration (mol/L)

Consider the following illustrative entries.
Fc1cccc(F)c1C1=NCc2nnc(-c3cccnn3)n2-c2ccc(Br)c(Cl)c21 = 8.64
COc1ccc2c(c1Cl)C(c1c(F)cccc1F)=NCc1nnc(C3CC3)n1-2 = 7.29
COc1ccc2c(c1Cl)C(c1c(F)cccc1F)=NCc1nnc(-c3ccncn3)n1-2 = 7.11
Cc1nnc2n1-c1ccc(Cl)cc1C(c1ccccc1)=NC2 [Alprazolam, reference compound] = 5.40
Cc1nnc2n1-c1ccc(Cl)c(Cl)c1C(c1ccccc1F)=NC2 = 7.18
Cc1nnc2n1-c1ccc(C3CC3)c(Cl)c1C(c1c(F)cccc1F)=NC2 = 7.03
COc1ccc2c(c1Cl)C(c1c(F)cccc1F)=NCc1nnc(-c3cccnn3)n1-2 = 7.24
CC(F)(F)c1ccc2c(c1Cl)C(c1c(F)cccc1F)=NCc1nncn1-2 = 7.28

Can you look up the measured pKi of CO[C@H]1C[C@H](c2nnc3n2-c2ccc(Cl)c(Cl)c2C(c2c(F)cccc2F)=NC3)C1 for me?
7.44

Can you look up the measured pKi of Cc1ccc2c(c1Cl)C(c1c(F)cccc1F)=NCc1nncn1-2 for me?
7.70

Can you look up the measured pKi of Fc1cccnc1C1=NCc2nnc(-c3cccnn3)n2-c2ccc(Br)c(Cl)c21 for me?
7.80

Can you look up the measured pKi of OCc1nnc2n1-c1ccc(Br)c(Cl)c1C(c1c(F)cccc1F)=NC2 for me?
7.90

Can you look up the measured pKi of Cc1nnc2n1-c1ccc(Br)c(Cl)c1C(c1ncccc1F)=NC2 for me?
7.61

Can you look up the measured pKi of Fc1cccc(F)c1C1=NCc2nnc(C3CCOCC3)n2-c2ccc(Cl)c(Cl)c21 for me?
7.31

Can you look up the measured pKi of Fc1cccnc1C1=NCc2nncn2-c2ccc(Br)c(Cl)c21 for me?
7.32

Can you look up the measured pKi of Cc1ccc2c(c1Cl)C(c1c(F)cccc1F)=NCc1nnc(-c3ccncn3)n1-2 for me?
7.85

Can you look up the measured pKi of Fc1ccccc1C1=NCc2nncn2-c2ccc(Br)c(Cl)c21 for me?
7.32

Can you look up the measured pKi of Cc1nnc2n1-c1ccc(C(F)(F)F)c(Cl)c1C(c1c(F)cccc1F)=NC2 for me?
7.57

Can you look up the measured pKi of Cc1nnc2n1-c1cccc(Cl)c1C(c1c(F)cccc1F)=NC2 [RE-G, reference compound] for me?
7.51

Can you look up the measured pKi of Fc1cccnc1C1=NCc2nnc(-c3cccnn3)n2-c2ccc(C(F)(F)F)c(Cl)c21 for me?
7.52

Can you look up the measured pKi of Fc1cccc(F)c1C1=NCc2nncn2-c2ccc(Cl)c(Cl)c21 for me?
8.06

---

TESTED SYSTEM: h-GABAA α2β2γ1 (Homo sapiens, UniProt P47869+Q8N1C3)
TEST PROTOCOL: Two-electrode voltage clamp electrophysiology in Xenopus oocytes, modulation of GABA EC20 current
Assay type: cell-based
Design: host or cells: Xenopus laevis oocytes, RNA micro-injection
CONDITION LABEL: Table 2; compound at approx. 30-fold its Ki α2β2γ1, GABA EC20, Xenopus oocytes
READOUT: Fold increase h-GABA-A α2β2γ1 oocyte @ 30-fold Ki
# answer = number (no unit)

Cc1ccc2c(c1Cl)C(c1c(F)cccc1F)=NCc1nnc(-c3ccncn3)n1-2 = 1.57
COc1ccc2c(c1Cl)C(c1c(F)cccc1F)=NCc1nnc(-c3cccnn3)n1-2 = 2.49
Cc1nnc2n1-c1ccc(Cl)c(Cl)c1C(c1ccccc1F)=NC2 = 1.73

Okay, now this compound:
Can you look up the measured Fold increase h-GABA-A α2β2γ1 oocyte @ 30-fold Ki of Cc1ccc2c(c1Cl)C(c1c(F)cccc1F)=NCc1nnc(-c3cccnn3)n1-2 for me?
2.01

---

TESTED SYSTEM: h-GABAA α1β3γ2 (Homo sapiens, UniProt P14867+P18507)
TEST PROTOCOL: Radioligand binding assay, [3H]Flumazenil competition, HEK293F membranes
READOUT: Ki
Give me the value, and tack the unit on after it.

Fc1cccnc1C1=NCc2nnc(C3CC3)n2-c2ccc(Br)c(Cl)c21 = 716 nM
Fc1cccnc1C1=NCc2nncn2-c2ccc(Br)c(Cl)c21 = 789 nM
Fc1cccnc1C1=NCc2nnc(-c3cccnn3)n2-c2ccc(Br)c(Cl)c21 = 1220 nM
Cc1ccc2c(c1Cl)C(c1c(F)cccc1F)=NCc1n[nH]c(=O)n1-2 = 666 nM

Okay, now this compound:
Can you look up the measured Ki of Cc1nnc2n1-c1ccc(C(F)(F)F)c(Cl)c1C(c1c(F)cccc1F)=NC2 for me?
1010 nM
